System: Phytophthora cactorum
Test: Antifungal activity against Phytophthora cactorum assessed as inhibition of mycelial growth at 200 ppm at 21 +/- 1 degC measured after 5 days
Format: functional
Conditions: 120 h, read-out: GI
measured.parameter: inhibition of growth at 200 ppm (%)
Numeric only. Scale: %

{"columns": ["smiles.repr", "value.units", "inhibition of growth at 200 ppm"],
 "data": [
  ["Oc1ccc(C(=S)N(Cc2ccccc2)c2ccccn2)c(O)c1", "%", 21],
  ["CCN(C(=S)c1ccc(O)cc1O)c1cccc2ccccc12", "%", 21],
  ["Cc1ccc2sc(-c3ccc(NC(=S)c4ccc(O)cc4O)cc3)nc2c1", "%", 0],
  ["CCCN(CCOc1c(Cl)cc(Cl)cc1Cl)C(=O)n1ccnc1", "%", 81],
  ["Oc1ccc(C(=S)N(c2ccccc2)c2nnns2)c(O)c1", "%", 81]
]}

Request: Name the recorded inhibition of growth at 200 ppm for "Oc1ccc(C(=S)Nc2cccc3c2CCCC3)c(O)c1" .
Response: 81

Request: Consider next the compound "O=[N+]([O-])c1cc(NC(=S)c2ccc(O)cc2O)ccc1F" in the same way.
Response: 81
